Cited source: patent US8945865B2

Biological target: OATP1B1 (Homo sapiens, UniProt Q9Y6L6, N130D)
Sequence (Q9Y6L6 whole entry N130D): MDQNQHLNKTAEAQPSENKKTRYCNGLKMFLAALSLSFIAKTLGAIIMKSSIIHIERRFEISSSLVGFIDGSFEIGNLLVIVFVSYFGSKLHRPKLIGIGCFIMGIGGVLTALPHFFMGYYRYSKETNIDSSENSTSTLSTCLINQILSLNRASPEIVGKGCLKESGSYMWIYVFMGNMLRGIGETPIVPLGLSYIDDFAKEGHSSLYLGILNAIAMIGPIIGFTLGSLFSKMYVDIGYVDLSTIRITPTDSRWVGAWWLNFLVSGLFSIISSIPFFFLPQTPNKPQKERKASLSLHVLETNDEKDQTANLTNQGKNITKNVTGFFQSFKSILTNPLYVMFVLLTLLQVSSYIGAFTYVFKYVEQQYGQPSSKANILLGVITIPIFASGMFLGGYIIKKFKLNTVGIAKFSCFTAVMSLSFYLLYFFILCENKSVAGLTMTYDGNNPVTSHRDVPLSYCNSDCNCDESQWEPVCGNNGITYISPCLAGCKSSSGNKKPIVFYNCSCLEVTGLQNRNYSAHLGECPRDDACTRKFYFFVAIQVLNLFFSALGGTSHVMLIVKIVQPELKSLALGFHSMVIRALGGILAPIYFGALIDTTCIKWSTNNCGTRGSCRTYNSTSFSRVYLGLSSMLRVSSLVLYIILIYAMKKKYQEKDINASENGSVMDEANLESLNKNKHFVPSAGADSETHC
Assay: OATP1B1 inhibition, DCF method (fluorescent substrate)
Settings: read-out: Ki (DCF); substrate DCF 3 μM, HEK-293 cells forcedly expressing OATP1B1, 37° C., 5 minutes
assay readout: pKi
Please note pKi is a logarithmic value: minus log10 of concentration in mol/L. Answer with that number alone.

Q. Given C[C@]12CC[C@@H]3c4ccc(OS(=O)(=O)O)cc4CC[C@H]3[C@@H]1CCC2=O [ES, estrone-3-sulfate] , state its recorded pKi.
A. 7.10

Q. Then what about the compound O=C1OC(c2ccc(O)c(S(=O)(=O)O)c2)(c2ccc(O)c(S(=O)(=O)O)c2)c2c(Br)c(Br)c(Br)c(Br)c21 [BSP, bromosulfophthalein] ?
A. 7.04
